- Method Notes: Metabolic stability in rat liver microsomes assessed as parent compound remaining at 0.5 uM incubated for 10 mins in presence of NADPH by LC-MS/MS analysis
- Type: ADME, Microsome
- Stated Conditions: read-out: Stability
Assign a class from recorded remaining at 10 min, 0.5 µM; defined classes: L = under 50%, M = from 50% up to 70%, H = 70% and over

{"columns": ["Sample Smiles", "Category"],
 "data": [
  ["COc1cc(NC(=O)[C@H](N)CC(C)C)ccc1-n1cncn1", "H"],
  ["COc1cc(NC(=O)[C@H](N)c2ccccc2)ccc1-c1cnco1", "M"],
  ["COc1cc(NC(=O)C[C@@H](N)C(C)C)ccc1-c1cnco1", "L"],
  ["COc1cc(NC(=O)[C@H](N)CC2CC2)ccc1-c1cnco1", "H"],
  ["COc1cc(NC(=O)[C@H](N)C(C)C)ccc1-c1cnco1", "L"],
  ["COc1cc(NC(=O)[C@H](N)C2CCCC2)ccc1-c1cnco1", "H"],
  ["CCC[C@@H](N)C(=O)Nc1ccc(-c2cnco2)c(OC)c1", "M"],
  ["COc1cc(NC(=O)[C@H](N)CC(C)C)ccc1-c1cn[nH]n1", "H"],
  ["COc1cc(NC(=O)[C@H](N)CC2CCC2)ccc1-c1cnco1", "M"],
  ["CCCC[C@H](N)C(=O)Nc1ccc(-c2cnco2)c(OC)c1", "M"],
  ["COc1cc(NC(=O)CC2CCCC2)ccc1-c1cnco1", "M"],
  ["CCC[C@H](N)C(=O)Nc1ccc(-c2cnco2)c(OC)c1", "L"],
  ["COc1cc(NC(=O)[C@H](N)CC(C)C)ccc1-c1cnco1", "H"],
  ["COc1cc(NC(=O)[C@H](N)CCC(C)C)ccc1-c1cnco1", "M"]
]}
